Ref: patent US9566312B2

Listing of entries alongside the reported IC50.
# System: peripheral blood mononuclear cells (PBMC)
# experiment-summary: Anti-proliferative or immunosuppressive activity, BrdU incorporation in PHA-stimulated PBMC
# Assay type: cell-based
# study-conditions: PHA 3 μg/ml, 60 hour compound treatment; read-out: EMV PBMC IC50
Starred links: 1 amine or outer side, 2 acyl side, 3 side chain; linkers in the order of their positions; H or OH if unused. Non-standard residues stand in square brackets, D forms with d. Residues, ends and D or L forms follow the SMILES beside them. X22 = C[C@H](CN1CCN(C2CCC2)CC1)[C@@H](C(=O)[*:2])N(C)[*:1]; X4 = C[C@H](CS(C)(=O)=O)[C@@H](C(=O)[*:2])N(C)[*:1]; MeBmt = C/C=C/C[C@@H](C)[C@@H](O)[C@H](NC)C(=O)O; NMeL = CN[C@@H](CC(C)C)C(=O)O; NMeV = CN[C@H](C(=O)O)C(C)C; dNMeA = CN[C@H](C)C(=O)O; Abu = CC[C@H](N)C(=O)O
Respond with the bare value in µM.

compound	system-tested	experimental-readout	value-units	experimental-result
C/C=C/C[C@@H](C)[C@@H](O)[C@H]1C(=O)N[C@@H](CC)C(=O)N(C)[C@H](C)C(=O)N(C)[C@@H]([C@H](C)CN2CCN(C3CCC3)CC2)C(=O)N[C@@H](C(C)C)C(=O)N(C)[C@@H](CC(C)C)C(=O)N[C@@H](C)C(=O)N[C@H](C)C(=O)N(C)[C@@H](CC(C)C)C(=O)N(C)[C@@H](CC(C)C)C(=O)N(C)[C@@H](C(C)C)C(=O)N1C [Compound 2.5.14] (cyclo(A[dA][NMeL][NMeL][NMeV][MeBmt][Abu][dNMeA][X22]V[NMeL]))	peripheral blood mononuclear cells (PBMC)	IC50	µM	8.1

C/C=C/C[C@@H](C)[C@@H](O)[C@H]1C(=O)N[C@@H](CC)C(=O)N(C)[C@H](C)C(=O)N(C)[C@@H]([C@H](C)CS(C)(=O)=O)C(=O)N[C@@H](C(C)C)C(=O)N(C)[C@@H](CC(C)C)C(=O)N[C@@H](C)C(=O)N[C@H](C)C(=O)N(C)[C@@H](CC(C)C)C(=O)N(C)[C@@H](CC(C)C)C(=O)N(C)[C@@H](C(C)C)C(=O)N1C [Compound 2.4] (cyclo(A[dA][NMeL][NMeL][NMeV][MeBmt][Abu][dNMeA][X4]V[NMeL])) has a reported IC50 of 1.9

----------
# Tested on: peripheral blood mononuclear cells (PBMC)
# experiment-summary: Anti-proliferative or immunosuppressive activity, BrdU incorporation in PHA-stimulated PBMC
# Format: cell-based
# study-conditions: PHA 3 μg/ml, 60 hour compound treatment; read-out: EMV PBMC IC50
# Procedure: Method 3: Measuring Anti-Proliferative or Immunosuppressive Activity The potential anti-proliferative activity of compounds on T-cells was analyzed based on the amount of bromodesoxy uridine (BrdU) incorporated into DNA of fresh peripheral blood mononuclear cells (PBMC) using the BrdU ELISA kit (Roche). The assay is performed in 96-well plate format with 30,000 PBMCs seeded per well in X-VIVO 15 medium (Lonza). […]
Starred links: 1 amine or outer side, 2 acyl side, 3 side chain; linkers in the order of their positions; H or OH if unused. Non-standard residues stand in square brackets, D forms with d. Residues, ends and D or L forms follow the SMILES beside them. X48 = C[C@@H](CN1CCN(S(C)(=O)=O)CC1)[C@@H](C(=O)[*:2])N(C)[*:1]; X49 = C[C@H](CCC(=O)N1CCN(C)CC1)[C@@H](C(=O)[*:2])N(C)[*:1]; X62 = COCCN1CCN(CCC[C@@H](C)[C@@H](C(=O)[*:2])N(C)[*:1])CC1; X55 = C[C@H](CN(C)CC(=O)N(C)C)[C@@H](C(=O)[*:2])N(C)[*:1]; X71 = COC1CN(CC[C@@H](C)[C@@H](C(=O)[*:2])N(C)[*:1])C1; MeBmt = C/C=C/C[C@@H](C)[C@@H](O)[C@H](NC)C(=O)O; NMeL = CN[C@@H](CC(C)C)C(=O)O; NMeV = CN[C@H](C(=O)O)C(C)C; dNMeA = CN[C@H](C)C(=O)O; Abu = CC[C@H](N)C(=O)O
Define the label as Condition met when IC50 is strictly less than 10 µM and as Condition not met in all remaining cases.

Below are worked cases with known answers.
compound	class-assignment
C/C=C/C[C@@H](C)[C@@H](O)[C@H]1C(=O)N[C@@H](CC)C(=O)N(C)[C@H](C)C(=O)N(C)[C@@H]([C@H](C)CCCN2CCN(CCOC)CC2)C(=O)N[C@@H](C(C)C)C(=O)N(C)[C@@H](CC(C)C)C(=O)N[C@@H](C)C(=O)N[C@H](C)C(=O)N(C)[C@@H](CC(C)C)C(=O)N(C)[C@@H](CC(C)C)C(=O)N(C)[C@@H](C(C)C)C(=O)N1C [Compound 2.19.6] (cyclo(A[dA][NMeL][NMeL][NMeV][MeBmt][Abu][dNMeA][X62]V[NMeL]))	Condition met
C/C=C/C[C@@H](C)[C@@H](O)[C@H]1C(=O)N[C@@H](CC)C(=O)N(C)[C@H](C)C(=O)N(C)[C@@H]([C@H](C)CCN2CC(OC)C2)C(=O)N[C@@H](C(C)C)C(=O)N(C)[C@@H](CC(C)C)C(=O)N[C@@H](C)C(=O)N[C@H](C)C(=O)N(C)[C@@H](CC(C)C)C(=O)N(C)[C@@H](CC(C)C)C(=O)N(C)[C@@H](C(C)C)C(=O)N1C [Compound 2.18.5] (cyclo(A[dA][NMeL][NMeL][NMeV][MeBmt][Abu][dNMeA][X71]V[NMeL]))	Condition met
C/C=C/C[C@@H](C)[C@@H](O)[C@H]1C(=O)N[C@@H](CC)C(=O)N(C)[C@H](C)C(=O)N(C)[C@@H]([C@H](C)CCC(=O)N2CCN(C)CC2)C(=O)N[C@@H](C(C)C)C(=O)N(C)[C@@H](CC(C)C)C(=O)N[C@@H](C)C(=O)N[C@H](C)C(=O)N(C)[C@@H](CC(C)C)C(=O)N(C)[C@@H](CC(C)C)C(=O)N(C)[C@@H](C(C)C)C(=O)N1C [Compound 2.14.3] (cyclo(A[dA][NMeL][NMeL][NMeV][MeBmt][Abu][dNMeA][X49]V[NMeL]))	Condition not met
C/C=C/C[C@@H](C)[C@@H](O)[C@H]1C(=O)N[C@@H](CC)C(=O)N(C)[C@H](C)C(=O)N(C)[C@@H]([C@@H](C)CN2CCN(S(C)(=O)=O)CC2)C(=O)N[C@@H](C(C)C)C(=O)N(C)[C@@H](CC(C)C)C(=O)N[C@@H](C)C(=O)N[C@H](C)C(=O)N(C)[C@@H](CC(C)C)C(=O)N(C)[C@@H](CC(C)C)C(=O)N(C)[C@@H](C(C)C)C(=O)N1C [Compound 2.17.9] (cyclo(A[dA][NMeL][NMeL][NMeV][MeBmt][Abu][dNMeA][X48]V[NMeL]))	Condition not met

Consider the record given below.
Problem: Please indicate whether the reported IC50 of C/C=C/C[C@@H](C)[C@@H](O)[C@H]1C(=O)N[C@@H](CC)C(=O)N(C)[C@H](C)C(=O)N(C)[C@@H]([C@H](C)CN(C)CC(=O)N(C)C)C(=O)N[C@@H](C(C)C)C(=O)N(C)[C@@H](CC(C)C)C(=O)N[C@@H](C)C(=O)N[C@H](C)C(=O)N(C)[C@@H](CC(C)C)C(=O)N(C)[C@@H](CC(C)C)C(=O)N(C)[C@@H](C(C)C)C(=O)N1C [Compound 2.5.27] (cyclo(A[dA][NMeL][NMeL][NMeV][MeBmt][Abu][dNMeA][X55]V[NMeL])) is strictly below 10 µM.
Solution: Condition not met
